Just for reference, patent US5087639A is where these values come from.

assay: Plasma pharmacokinetics of acivicin in cats with concomitant infusion; conditions: cat, in vivo, ip, 60 mg/kg, Saline infusion, n=3; mean ± s.d.
READOUT_LABEL: CL/F (L/h/kg)
Form entry: value (L/h/kg) — number only.

query: Report CL/F for "N[C@H](C(=O)O)[C@@H]1CC(Cl)=NO1"
result: 0.077

###

assay: Plasma pharmacokinetics of acivicin in cats with concomitant infusion; details: cat, in vivo, ip, 60 mg/kg, Saline infusion, n=3; mean ± s.d.
READOUT_LABEL: half-life (h)
Note: unit h is implicit; provide only the numeric part.

query: For the compound N[C@H](C(=O)O)[C@@H]1CC(Cl)=NO1 [Acivicin] , give its measured half-life value.
result: 8.4

###

assay: Plasma pharmacokinetics of acivicin in cats with concomitant infusion; conditions: cat, in vivo, ip, 60 mg/kg, Aminosyn infusion, n=2; mean ± s.d.; read-out: Varea
READOUT_LABEL: Vd/F (L/kg)
# number only, unit L/kg dropped from output

query: Assign Vd/F to the following record: "N[C@H](C(=O)O)[C@@H]1CC(Cl)=NO1"
result: 0.684

###

test: Plasma pharmacokinetics of acivicin in cats with concomitant infusion; settings: cat, in vivo, ip, 60 mg/kg, Aminosyn infusion, n=2; mean ± s.d.
READOUT_LABEL: CL/F (mL/min/kg)
Write it as a number; the unit mL/min/kg goes unstated.

query: Indicate the recorded CL/F value for this compound: "N[C@H](C(=O)O)[C@@H]1CC(Cl)=NO1"
result: 1.83

###

assay: Plasma pharmacokinetics of acivicin in cats with concomitant infusion; settings: cat, in vivo, ip, 60 mg/kg, second line "aminosyn", n=4; mean ± s.d.; read-out: Varea
READOUT_LABEL: Vd/F (L/kg)
# number only, unit L/kg dropped from output

query: Consider the molecule N[C@H](C(=O)O)[C@@H]1CC(Cl)=NO1 [Acivicin] and give its recorded Vd/F.
result: 0.625
